tested on: SF-295 CNS; assay: NCI tumour cell line growth inhibition, 48 h
READOUT: TGI (µM)

>>> print(df.to_string())
                                    molecule  target_of_assay  readout  measurement_unit  value_operator  quantitative_result
 0  C1CC[N-]CC1.CC(=N\O)/C(C)=N/O.CC(=N\O)/C(C)=N/O.[CH2-]CCN1CCOCC1.[Co+2]       SF-295 CNS      TGI                µM               >                  100
 1  NS(=O)(=O)c1ccc(NC(=O)COC(=O)c2cccc3c(=O)c4ccccc4[nH]c23)cc1       SF-295 CNS      TGI                µM               =                 52.6
 2  CC1(C)[C@@H](OC(N)=O)C=C[C@]2(C=O)[C@H]3CC[C@]4(C)[C@@H](c5ccc(=O)oc5)[C@@H](Cl)C[C@]4(O)C3=CC[C@@H]12       SF-295 CNS      TGI                µM               =               0.0111
 3  COc1ccc(-c2c(N)n[nH]c2-c2cc(OC)c(OC)c(OC)c2)cc1       SF-295 CNS      TGI                µM               >                  100
 4                      O=S(=O)(O)ONC1=NCCN1       SF-295 CNS      TGI                µM               >                  100
 5                        NCP(=O)(O)OCC(=O)O       SF-295 CNS      TGI                µM               >                  100
 6      CN(C)CCNc1nc(-c2cccs2)cc(-c2cccs2)n1       SF-295 CNS      TGI                µM               =                 28.2
 7  CC(C)(C)C(=O)OCc1nc2cc3c(cc2c(=O)[nH]1)CCC3=O       SF-295 CNS      TGI                µM               >                  100
 8            O=[N+]([O-])c1cc(F)c2cccnc2c1O       SF-295 CNS      TGI                µM               =                 86.6
 9  CC(C)N(C(C)C)P(OCCC#N)OC1CC(n2cnc3c(=O)[nH]cnc32)OC1COC(=O)NCCCCCCNC(=O)OC(C)(C)c1ccc(-c2ccccc2)cc1 (stereo unspecified)       SF-295 CNS      TGI                µM               >                  100
10    N#Cc1cccc(OCc2ccccc2COc2cccc(C#N)c2)c1       SF-295 CNS      TGI                µM               =                 20.3
11  CC1(C)C2CCC(N)(C2)C1O (stereo unspecified)       SF-295 CNS      TGI                µM               >                  100
12   Oc1c(CN2CCOCC2)cc(COCc2ccccc2)c2cccnc12       SF-295 CNS      TGI                µM               =                 30.6
13  O=P1(c2ccccc2)C2=CCC=CC2C(c2ccccc2)N1Cc1ccccc1 (stereo unspecified)       SF-295 CNS      TGI                µM               =                 28.8
14    Cc1sc2ncn(Cc3ccc(Cl)c(Cl)c3)c(=O)c2c1C       SF-295 CNS      TGI                µM               =                 22.7
15            N=C(c1cccs1)C1(N2CCCCC2)CCCCC1       SF-295 CNS      TGI                µM               =                 39.7
16  O=c1c2c3c(sc2n2c(-c4ccc(Br)cc4)nnc2n1Cc1ccccc1)CCCC3       SF-295 CNS      TGI                µM               =                 7.51
17  OC(c1ccccc1)(c1cccnc1)C(O)(c1ccccc1)c1cccnc1 (stereo unspecified)       SF-295 CNS      TGI                µM               >                  100
18           C=CCN1CCC2(CC1)NC(=O)c1ccccc1O2       SF-295 CNS      TGI                µM               >                  100
19  CCCCNC(=S)Nc1nc(C(=O)NNC(=O)c2ccccc2)cs1       SF-295 CNS      TGI                µM               =                 33.9
20  CCOC(=O)Cc1csc(NC(=O)COC(=O)c2ccc(OC)cc2)n1       SF-295 CNS      TGI                µM               >                  100
